Recorded values, source patent US20260042850A1.

molecular target: T1, cynomolgus monkey C-MET His tag, monomeric (cynomolgus monkey, UniProt A0M8R7 25-932 (Papio anubis entry)); assay: SPR Biacore, monomeric cyno against monomeric human C-MET
T1 construct: also called monomeric cyno C-MET; cyCMET
T1 sequence (A0M8R7 25-932 S170N/I621T): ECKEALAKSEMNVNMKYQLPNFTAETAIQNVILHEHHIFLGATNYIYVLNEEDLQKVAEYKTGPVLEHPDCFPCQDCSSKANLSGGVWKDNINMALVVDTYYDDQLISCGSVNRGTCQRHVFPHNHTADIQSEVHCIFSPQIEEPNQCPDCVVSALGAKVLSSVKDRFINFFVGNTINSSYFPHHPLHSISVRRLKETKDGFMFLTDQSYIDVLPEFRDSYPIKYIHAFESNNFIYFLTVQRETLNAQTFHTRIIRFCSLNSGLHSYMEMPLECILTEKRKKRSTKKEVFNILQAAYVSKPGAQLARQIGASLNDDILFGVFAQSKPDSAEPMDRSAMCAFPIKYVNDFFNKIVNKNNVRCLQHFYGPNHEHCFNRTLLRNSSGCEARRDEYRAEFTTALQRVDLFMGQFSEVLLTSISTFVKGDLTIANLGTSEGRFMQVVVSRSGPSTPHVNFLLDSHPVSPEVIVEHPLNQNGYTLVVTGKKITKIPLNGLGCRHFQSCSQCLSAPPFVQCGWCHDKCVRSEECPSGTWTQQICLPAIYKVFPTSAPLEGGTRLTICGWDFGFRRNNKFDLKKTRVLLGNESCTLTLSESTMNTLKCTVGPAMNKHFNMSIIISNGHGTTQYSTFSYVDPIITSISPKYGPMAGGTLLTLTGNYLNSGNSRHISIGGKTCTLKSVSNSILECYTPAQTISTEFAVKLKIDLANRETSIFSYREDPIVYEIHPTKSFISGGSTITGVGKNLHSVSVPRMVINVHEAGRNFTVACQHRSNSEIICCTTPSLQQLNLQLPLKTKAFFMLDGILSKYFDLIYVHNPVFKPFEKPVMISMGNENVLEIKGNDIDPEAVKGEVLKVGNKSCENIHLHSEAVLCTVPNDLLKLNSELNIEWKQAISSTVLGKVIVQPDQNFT
Measurement Name: cyno C-MET affinity, fold of the human C-MET affinity

[ask] Which cyno C-MET affinity, fold of the human C-MET affinity reading was recorded for the binder 09E04 (antibody, IgG4, V domains shown) VH: QVQLVQSGAEVKKPGASVKVSCKASGYIFTSYTMHWVRQAPGQGLEWMGWINPNGGSTSYAQKFQGRVTMTRDTSTSTVYMELSSLRSEDTAVYYCARQEITTEFDYWGQGTLVTVSS VL: EIVLTQSPGTLSLSPGERATLSCRASQSVESYANSYLHWYQQKPGQAPRLLIYRGSTRESGIPDRFSGSGSGTDFTLTISRLEPEDFAVYYCQQYGSEPLTFGGGTKVEIK ?
[reply] ≤ 2 fold
